Every entry's value here was drawn from patent US4229452A.

- Tested on: carrageenin-induced paw edema
- measurement_description: carrageenin-induced paw edema test in the rat
- Format: in vivo, rat (Male Charles River)
- test_context: 16 mg/kg po
value_type: inhibition in vivo at 16 mg/kg (%)
Answer in %, number only, no unit symbol.

Query: Can you share its inhibition in vivo at 16 mg/kg? I mean this compound: Cc1nc2ccccc2n2ccnc12
Result: 28

Query: Can you share its inhibition in vivo at 16 mg/kg? I mean this compound: CC(C)Cc1nc2ccccc2n2ccnc12
Result: 0

Query: Can you share its inhibition in vivo at 16 mg/kg? I mean this compound: FC(F)(F)c1nc2ccccc2n2ccnc12
Result: 29

Query: Can you share its inhibition in vivo at 16 mg/kg? I mean this compound: CCc1nc2ccccc2n2ccnc12
Result: 32
